The reported measurements were obtained from patent US7592373B2.

Counter-ions that a name gives are not always drawn.
Measurement Type: melting point

# melting point lookup, item CCN(CC)CCOc1ccc(NC(=O)C#Cc2ccc(C(F)(F)F)cc2Cl)cc1NS(C)(=O)=O [Example 4.23]
57 to 60 °C

# melting point lookup, item CCN(CC)CCc1ccc(NC(=O)C#Cc2ccc(Cl)cc2Cl)cc1 (as salt: hydrochloride) [Example 3.34]
204 to 208 °C

# melting point lookup, item C[C@@H]1C[C@H](C)CN(Cc2ccc(/C=C/C(=O)Nc3ccc(-c4ccc(Cl)cc4)cc3)cc2)C1 [Example 5.3]
217 to 218 °C

# melting point lookup, item O=C(C#Cc1ccc(CNCCC2CCCCC2)cc1)Nc1ccc(-c2ccc(Cl)cc2)cc1 [Example 1.52]
156 to 157 °C

# melting point lookup, item O=C(/C=C/c1ccc(CN2CCCC2)cc1)Nc1ccc(-c2ccc(Cl)cc2)cc1 [Example 5.13]
219 °C

# melting point lookup, item O=C(C#Cc1ccc(CCN2CCCC2)cc1)Nc1ccc(Cl)cc1 [Example 2.2]
153 to 154 °C

# melting point lookup, item O=C(C#Cc1ccc(CCN2CCCC2)cc1)Nc1ccc(-c2ccc(Cl)cc2)cc1 [Example 2.4]
217 to 218 °C

# melting point lookup, item O=C(C#Cc1ccc(C(F)(F)F)cc1Cl)Nc1ccc2nc(N3CCCCC3)ccc2c1 [Example 7.1]
176 to 179 °C

###

Structures can show the parent of a compound that is named as a salt.
Measurement Type: melting point

# melting point lookup, item NC(=O)C1CCN(Cc2ccc(CCC(=O)Nc3ccc(-c4ccc(Cl)cc4)cc3)cc2)CC1
240 to 241 °C

# melting point lookup, item CC1CCCC(C)N1Cc1ccc(NC(=O)C#Cc2ccc(-c3ccc(Cl)cc3)cc2)cc1 (stereo not shown)
158 to 163 °C

# melting point lookup, item O=C(/C=C/c1ccc(CNC2CCCCC2)cc1)Nc1ccc(-c2ccc(Cl)cc2)cc1
247 to 248 °C

# melting point lookup, item CCN(CC)CCOc1ccc(NC(=O)C#Cc2ccc(C(F)(F)F)cc2Cl)cc1N
127 to 130 °C

# melting point lookup, item C[C@@H]1C[C@H](C)CN(Cc2ccc(CCC(=O)Nc3ccc(-c4ccc(Cl)cc4)cc3)cc2)C1
164 to 169 °C

# melting point lookup, item COc1cc(NC(=O)C#Cc2ccc(C(F)(F)F)cc2Cl)ccc1OCCN1C(C)CCCC1C (stereo not shown)
225 to 227 °C

# melting point lookup, item CN(Cc1ccc(/C=C/C(=O)Nc2ccc(-c3ccc(Cl)cc3)cc2)cc1)C1CCN(C(=O)OC(C)(C)C)CC1
168 to 169 °C

# melting point lookup, item COc1cc(NC(=O)C#Cc2ccc(C(F)(F)F)cc2Cl)ccc1OCCN1CCOCC1
209 to 211 °C

# melting point lookup, item CC#Cc1ccc(NC(=O)C#Cc2ccc(CCN3CCCC3)cc2)cc1
198 to 199 °C

# melting point lookup, item CC1CCN(Cc2ccc(/C=C/C(=O)Nc3ccc(-c4ccc(Cl)cc4)cc3)cc2)CC1
207 to 208 °C

# melting point lookup, item O=C(/C=C/c1ccc(CN(CCO)C2CCCCC2)cc1)Nc1ccc(-c2ccc(Cl)cc2)cc1
178 to 179 °C

# melting point lookup, item CN(Cc1ccc(CCC(=O)Nc2ccc(-c3ccc(Cl)cc3)cc2)cc1)C1CCOCC1
167 to 173 °C

# melting point lookup, item CCN(CC)CCOc1ccc(NC(=O)C#Cc2ccc(Cl)cc2Cl)cc1OC (as salt: hydrochloride)
205 to 207 °C

###

Counter-ions that a name gives are not always drawn.
Field: melting point. Provide a value for each of the molecules that follow.

# melting point lookup, item COc1ccc(-c2ccc(NC(=O)C#Cc3ccc(CN4CCC(Nc5ccccn5)CC4)cc3)cc2)cc1 [Example 1.11]
196 to 197 °C

# melting point lookup, item CN(Cc1ccncc1)Cc1ccc(CCC(=O)Nc2ccc(-c3ccc(Cl)cc3)cc2)cc1 [Example 6.32]
102 °C

# melting point lookup, item CCN(CC)CCOc1ccc(NC(=O)C#Cc2ccc(Cl)cc2Cl)cc1Cl [Example 4.1]
98 to 100 °C

# melting point lookup, item O=C(C#Cc1ccc(C(F)(F)F)cc1Cl)Nc1ccc2c(ccn2CCN2CCCC2)c1 [Example 4.11]
200 to 205 °C

# melting point lookup, item COCCN(C)Cc1ccc(NC(=O)C#Cc2ccc(-c3ccc(Cl)cc3)cc2)cc1 [Example 3.11]
130 to 133 °C

# melting point lookup, item O=C(C#Cc1ccc(Cl)cc1)Nc1ccc2c(ccn2CCN2CCCC2)c1 [Example 4.9]
135 to 144 °C

# melting point lookup, item O=C(CCc1ccc(CN2CCC(CO)CC2)cc1)Nc1ccc(-c2ccc(Cl)cc2)cc1 [Example 6.6]
185 to 186 °C

# melting point lookup, item O=C(C#Cc1ccc(CN2CCC(O)CC2)cc1)Nc1ccc(-c2ccc(Cl)cc2)cc1F [Example 1.21]
164 to 165 °C

# melting point lookup, item CC(C)(O)C1CCN(Cc2ccc(C#CC(=O)Nc3ccc(-c4ccc(Cl)cc4)cc3)cc2)CC1 [Example 1.34]
194 to 195 °C

# melting point lookup, item O=C(/C=C/c1ccc(CN2CCC(CO)CC2)cc1)Nc1ccc(-c2ccc(Cl)cc2)cc1 [Example 5.8]
190 to 191 °C

# melting point lookup, item CC1(O)CCN(Cc2ccc(CCC(=O)Nc3ccc(-c4ccc(Cl)cc4)cc3)cc2)CC1 [Example 6.9]
192 °C

# melting point lookup, item CN(CCCN)Cc1ccc(CCC(=O)Nc2ccc(-c3ccc(Cl)cc3)cc2)cc1 [Example 6.27]
165 °C

# melting point lookup, item O=C(C#Cc1ccc(-c2ccc(Cl)cc2)cc1)Nc1ccc(CN2CCC(O)(C(F)(F)F)CC2)cc1 [Example 3.17]
194 to 200 °C

# melting point lookup, item NC(=O)C1CCN(Cc2ccc(/C=C/C(=O)Nc3ccc(-c4ccc(Cl)cc4)cc3)cc2)CC1 [Example 5.6]
254 to 255 °C

# melting point lookup, item CC1CCN(Cc2ccc(NC(=O)C#Cc3ccc(-c4ccc(Cl)cc4)cc3)cc2)CC1 [Example 3.14]
263 to 268 °C

# melting point lookup, item COCCN(Cc1ccc(CCC(=O)Nc2ccc(-c3ccc(Cl)cc3)cc2)cc1)CC(C)(C)O [Example 6.14]
108 to 109 °C

# melting point lookup, item COCCN(C)Cc1ccc(/C=C/C(=O)Nc2ccc(-c3ccc(Cl)cc3)cc2)cc1 [Example 5.14]
222 to 223 °C

# melting point lookup, item COC1CCN(Cc2ccc(CCC(=O)Nc3ccc(-c4ccc(Cl)cc4)cc3)cc2)CC1 [Example 6.3]
143 to 144 °C

# melting point lookup, item O=C(CCc1ccc(CNC2CCCCC2)cc1)Nc1ccc(-c2ccc(Cl)cc2)cc1 [Example 6.39]
208 °C

# melting point lookup, item NC1(c2ccc(C#CC(=O)Nc3ccc(-c4ccc(Cl)cc4)cc3)cc2)CC1 (as salt: trifluoroacetate) [Example 1.422]
160 to 164 °C

# melting point lookup, item CC1CC(C)CN(Cc2ccc(NC(=O)C#Cc3ccc(-c4ccc(Cl)cc4)cn3)cc2)C1 (centres unmarked) [Example 3.29]
195 to 197 °C

# melting point lookup, item COc1ccc(-c2ccc(NC(=O)C#Cc3ccc(CN4CCCCC4)cc3)cc2)cc1 [Example 1.8]
170 °C

# melting point lookup, item CCN(Cc1ccc(CCC(=O)Nc2ccc(-c3ccc(Cl)cc3)cc2)cc1)CC(C)(C)O [Example 6.42]
135 °C

# melting point lookup, item COCCN(C)Cc1ccc(CCC(=O)Nc2ccc(-c3ccc(Cl)cc3)cc2)cc1 [Example 6.17]
138 °C

# melting point lookup, item COCCN(Cc1ccc(/C=C/C(=O)Nc2ccc(-c3ccc(Cl)cc3)cc2)cc1)CC(C)(C)O [Example 5.27]
125 to 126 °C

# melting point lookup, item CCN(CC)CCOc1ccc(NC(=O)C#Cc2ccc(C(F)(F)F)cc2Cl)cc1F [Example 4.25]
85 to 88 °C

# melting point lookup, item O=C(C#Cc1ccc(C(F)(F)F)cc1Cl)Nc1ccc(OCCn2cccn2)cc1 [Example 3.43]
120 to 125 °C

# melting point lookup, item O=C(C#Cc1ccc(-c2ccccc2)cc1Cl)Nc1ccc(CN2CCCCC2)cc1 (as salt: hydrochloride) [Example 3.33]
260 to 265 °C

# melting point lookup, item COC1CCN(Cc2ccc(/C=C/C(=O)Nc3ccc(-c4ccc(Cl)cc4)cc3)cc2)CC1 [Example 5.4]
205 to 206 °C
